Data provenance is patent US20250368745A1.

Assign Kd to each entry below.
assayed-system: T1, human IL-18BP (human, UniProt O95998 31-194)
T1 construct: UniProt printed as 095998; also called hIL-18BP
T1 sequence: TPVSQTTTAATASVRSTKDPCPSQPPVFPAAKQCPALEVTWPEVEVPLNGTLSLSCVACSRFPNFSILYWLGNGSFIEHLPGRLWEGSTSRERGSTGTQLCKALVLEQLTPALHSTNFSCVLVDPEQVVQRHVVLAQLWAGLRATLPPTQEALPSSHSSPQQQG
assay-text: BLI, apparent KD
Please answer in the form of a number followed by its unit of measurement.

binder	Kd
SA301a LC-T96A (antibody, V domains shown) VH: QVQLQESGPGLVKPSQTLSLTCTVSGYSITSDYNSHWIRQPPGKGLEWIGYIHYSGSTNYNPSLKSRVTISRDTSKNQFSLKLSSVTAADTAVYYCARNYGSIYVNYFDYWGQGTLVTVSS VL: EIVLTQSPATLSLSPGERATLSCSASSSVSYMYWYQQKPGQAPRPLIYRTSNLASGIPARFSGSGSGTDFTLTISSLEPEDFAVYYCQQYHSYPAFGGGTKVEIK	0.17 nM
SA301a LC-Y91P (antibody, name in Kabat numbering, V domains shown, IgG1 kappa) VH: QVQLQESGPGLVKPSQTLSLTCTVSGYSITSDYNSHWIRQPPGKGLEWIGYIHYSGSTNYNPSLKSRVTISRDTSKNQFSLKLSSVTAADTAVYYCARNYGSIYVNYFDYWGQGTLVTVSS VL: EIVLTQSPATLSLSPGERATLSCSASSSVSYMYWYQQKPGQAPRPLIYRTSNLASGIPARFSGSGSGTDFTLTISSLEPEDFAVYYCQQPHSYPTFGGGTKVEIK	0.24 nM

Lab note: next binder to report on.
Return Kd for the following binder: SA301a LC-Q90H (antibody, name in Kabat numbering, V domains shown, IgG1 kappa) VH: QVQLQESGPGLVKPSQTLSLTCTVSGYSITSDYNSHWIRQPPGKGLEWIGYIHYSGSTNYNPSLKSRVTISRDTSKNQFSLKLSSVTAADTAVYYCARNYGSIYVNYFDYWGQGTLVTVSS VL: EIVLTQSPATLSLSPGERATLSCSASSSVSYMYWYQQKPGQAPRPLIYRTSNLASGIPARFSGSGSGTDFTLTISSLEPEDFAVYYCQHYHSYPTFGGGTKVEIK
0.25 nM
